- MEASUREMENT_NOTES: self-splicing fitness, log relative to wild type (ln ratio); higher = more splicing; Tetrahymena group I intron in knt gene, E. coli kanamycin selection, DiMSum; sequences stand for … in CUCUCU…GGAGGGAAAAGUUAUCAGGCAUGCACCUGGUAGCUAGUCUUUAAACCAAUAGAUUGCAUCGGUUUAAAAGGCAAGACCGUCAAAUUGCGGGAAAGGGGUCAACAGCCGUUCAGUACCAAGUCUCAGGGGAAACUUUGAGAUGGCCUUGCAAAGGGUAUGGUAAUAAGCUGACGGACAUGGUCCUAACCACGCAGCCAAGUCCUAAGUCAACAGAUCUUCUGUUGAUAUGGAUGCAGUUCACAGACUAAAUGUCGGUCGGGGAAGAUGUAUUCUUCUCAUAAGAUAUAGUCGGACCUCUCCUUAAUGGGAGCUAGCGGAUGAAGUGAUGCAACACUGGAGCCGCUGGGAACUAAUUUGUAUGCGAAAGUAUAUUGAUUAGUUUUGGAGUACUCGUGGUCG;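 note: selection with 25 µg/mL kanamycin versus none on LB agar overnight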
- STATED_CONDITIONS: 37 °C
# self-splicing fitness (ln) values compiled below
I'd appreciate a reply containing only the number, no unit.

CAAAAGCAAUAUUACGUAGC: -2.61
UCGAAGCAAUAUUACGUAAC: -2.77
CAUGAGCAAUAUUACGGGGU: -3.38

Kindly review the next sequence as well.
Task: Give the reported value of self-splicing fitness (ln) for this record: CCUGAGCAAUAUUACGAUUA
Output: -2.35

###

- MEASUREMENT_NOTES: self-splicing fitness, log relative to wild type (ln ratio); higher = more splicing; Tetrahymena group I intron in knt gene, E. coli kanamycin selection, DiMSum; sequences stand for … in CUCUCU…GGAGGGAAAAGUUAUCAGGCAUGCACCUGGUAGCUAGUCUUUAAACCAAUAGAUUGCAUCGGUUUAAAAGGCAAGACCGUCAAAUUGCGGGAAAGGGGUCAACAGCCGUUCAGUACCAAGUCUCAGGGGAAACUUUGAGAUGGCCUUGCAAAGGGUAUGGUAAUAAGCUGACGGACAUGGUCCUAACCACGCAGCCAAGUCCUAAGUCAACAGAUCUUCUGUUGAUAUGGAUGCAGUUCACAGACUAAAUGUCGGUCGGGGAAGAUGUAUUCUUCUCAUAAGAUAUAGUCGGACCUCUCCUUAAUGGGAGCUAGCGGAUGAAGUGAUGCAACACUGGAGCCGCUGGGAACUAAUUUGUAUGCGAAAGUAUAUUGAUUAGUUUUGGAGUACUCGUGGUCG
- STATED_CONDITIONS: 37 °C
Criterion: self-splicing fitness (ln) meeting or surpassing -2. Met: true (1). Not met: false (0).

AGCUAGCAAUAUUACGUCGC: false (0)

Task: Determine whether this sequence has self-splicing fitness (ln) no lower than -2: ACUUAGCAAUAUUACGAUAG
Output: true (1)

Task: Determine whether this sequence has self-splicing fitness (ln) no lower than -2: CAAGAGCAAUAUUACGAUAU
Output: false (0)

Task: Determine whether this sequence has self-splicing fitness (ln) no lower than -2: AUCCAGCAAUAUUACGCCCG
Output: true (1)

Task: Determine whether this sequence has self-splicing fitness (ln) no lower than -2: UCAGAGCAAUAUUACGGGCA
Output: true (1)

Task: Determine whether this sequence has self-splicing fitness (ln) no lower than -2: GACGAGCAAUAUUACGGCGG
Output: false (0)

# credit: the supplement of paper PMC7877785
